procedure.text: NCI Yeast Anticancer Drug Screen. Data for the sgs1 mgt1 strain (AID 161);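 note: 0% = growth of cultures given vehicle only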
condition.description: S. cerevisiae sgs1 mgt1 strain, at 50.0 µM, hits give high values
Compounds without any hit were thinned out: in the full panel of roughly 79,000, 15% have a hit.
quantity.name: growth inhibition (%)

                                    molecule      quantity_name  meas_value
 0                       CCc1ccccc1NC(=O)CCl  growth inhibition       -0.35
 1  CNC(=O)OCc1c(COC(=O)NC)c2n(c1C)CCS2(=O)=O  growth inhibition       -8.15
 2  N#CCC(=O)N/N=C1\C(=O)N(c2ccc(Cl)cc2)C(=O)C(=O)C1c1nc2ccccc2o1 (centres undefined)  growth inhibition         0.4
 3  CCCC(=O)c1cc(-c2cc(C(=O)CCC)nc(N)n2)nc(N)n1  growth inhibition         3.1
 4  CC1=C(c2ccccc2)OS(=O)(=O)CC1N(C)C (centres undefined)  growth inhibition       -1.65
 5    ClC1CC2CC1C1COCC21 (centres undefined)  growth inhibition       -3.85
 6        O=CN1CCN(c2ccc3ccc(=O)[nH]c3n2)CC1  growth inhibition        19.5
 7  NCC(=O)N1CCCC1C(=O)O (centres undefined)  growth inhibition        -0.7
 8  Cc1c(C(=O)Nc2ccc(Cl)c(C(F)(F)F)c2)oc2cc(O)ccc2/c1=N\NC(N)=S  growth inhibition       -23.6
 9  O=C1/C(=C/c2ccco2)SC(=S)N1C1c2ccccc2Oc2ccccc21  growth inhibition        67.2
10            O=NN(CCCl)C(=O)Oc1ccc2ccccc2c1  growth inhibition        16.1
11               Cc1c(F)cc(I)cc1[N+](=O)[O-]  growth inhibition         -11
12    CC(=O)Nc1ccc(S(=O)(=O)N/N=C/C(=O)O)cc1  growth inhibition         -40
13    CCCCCC1NC(C)(C)CO1 (centres undefined)  growth inhibition       -0.85
